# tested_target: pre-pro-human insulin
parameter: Selectivity

Name the reported Selectivity value associated with the protein trypsin variant SEQ ID NO: 69 (protein) IVGGYTCAANSIPYQVSLNSGSHRCGGSLINSQWVVSAAHCYKSRIQVRLGEHNIDVLEGNEQFINAAKIITHPNFNGNTLDNDIMLIKLSSPATLNSRVATVSLPRSCAAAGTECLISGWGNTKSSGSSYPSLLQCLKAPVLSDSSCKSSYPGQITGNMICVGFLEGGKDACQGDSGGPVVCNGQLQGIVSFGYGCAQKNKPGVYTKVCNYVNWIQQTIAAN >70%

Next: trypsin variant SEQ ID NO: 88 (protein) IVGGYTCAANSIPYQVSLNSGSHRCGGSLINSQWVVSAAHCYKPRIQVRLGEHNIHVLEGNEQFINAAKIITHPNFNPNTLDNDIMLIKLSSPATLNSHVATVSLPTSCAAAGTECLISGWGNTSSSGSSMPSLLQCLKAPVLSDSSCKSSYPGQITGNMICVGFLEGGKDSCQGDSGGPVVCNGQLQGIVSSGYGCAQKNKPGVYTKVCNYVNWIQQTIAAN >90%
